What cytotoxicity at 70.5 h was measured for each of the following?
Test: Human HepG2 cell viability assay in 384 well format
Format: toxicity, cell-based
Parameters: dose 125 nL, time 70.5 hour; concentration not given beside the values
Conditions: HepG2 cells, read-out: Inhibition
One number for each entry, in %.

CN(C)Cc1nc2c(o1)CN(C(=O)c1ccncc1F)C2 = -8.38
N#CCCNC(=O)CSc1cc(F)ccc1F = -9.07
O=C(c1cnc(O)c(Cl)c1)N1CCCC(c2nccs2)C1 (stereo not drawn) = 6.3

Hello, I would appreciate it if you could give cytotoxicity at 70.5 h for each entry below.
1. O=C(NCCN1CCC(c2cccs2)CC1)c1ccc(F)cc1Cl
2. CCCC1CN(CCOC)C(=O)c2cccnc2O1 (stereo not drawn)
3. CCN1CCn2c(C)cnc2C12CCN(C(=O)CC(C)C)CC2
4. c1cncc(CN2CC[C@H]3O[C@@H](COCC4CCOCC4)CC[C@H]32)c1
5. O=C(NCCc1ccccc1)C1CCCN(c2ccc3nncn3n2)C1 (stereo not drawn)
6. CCCNC(=O)CNc1ccccc1OCCC(=O)OC
7. CC1(C(=O)N2CCOCC2)CN(C2CCCCC2)CCO1 (stereo not drawn)
8. CC(O)CN1CC2(CCC1=O)CCN(C(=O)c1cnn(C)c1)CC2 (stereo not drawn)

Response:
-3.13
-8.12
-2.3
-7.03
-9.33
-7.23
0.715
-1.73

Hello, I would appreciate it if you could give cytotoxicity at 70.5 h for each entry below.
1. CN1CC[C@H](c2nnc(-c3cncn3C)o2)C1
2. CCc1cnc(NCCS(=O)(=O)N(C)C)nc1
3. COc1cccc([C@@]2(O)CC[C@@H]3CN(C(=O)c4cn(C)nc4C)C[C@@H]32)c1
4. Cn1ccc2c(-c3nccc(N)n3)ccnc21
5. CCNC(=O)[C@H]1CN(Cc2ccccc2)C[C@@H]1C(=O)c1ccccc1
6. CN(Cc1ccccn1)C(=O)c1nc(S(C)(=O)=O)n2ccccc12
7. CCOc1ccccc1C(CC(=O)Nc1ccc(C)cn1)NC(C)=O (stereo not drawn)
8. CCCS(=O)(=O)NCCc1ncc(CC)s1

Response:
1. -0.523
2. 20.6
3. 1.27
4. 5.54
5. -12.3
6. 1.32
7. -9.08
8. -0.431

Hello, I would appreciate it if you could give cytotoxicity at 70.5 h for each entry below.
1. CCc1c(C)sc2ncnc(N3C[C@H](O)[C@@H](N4CCCC4)C3)c12
2. CN(Cc1ccsc1)C(=O)c1ccc(S(=O)(=O)NC(C)(C)C)cc1

Response:
[-2.63, -7.83]
